The values you see were collected from ChEMBL document CHEMBL3217453.

- MEASURED_ON: Adenosine receptor A2a (Homo sapiens)
- Sequence (P29274 whole entry): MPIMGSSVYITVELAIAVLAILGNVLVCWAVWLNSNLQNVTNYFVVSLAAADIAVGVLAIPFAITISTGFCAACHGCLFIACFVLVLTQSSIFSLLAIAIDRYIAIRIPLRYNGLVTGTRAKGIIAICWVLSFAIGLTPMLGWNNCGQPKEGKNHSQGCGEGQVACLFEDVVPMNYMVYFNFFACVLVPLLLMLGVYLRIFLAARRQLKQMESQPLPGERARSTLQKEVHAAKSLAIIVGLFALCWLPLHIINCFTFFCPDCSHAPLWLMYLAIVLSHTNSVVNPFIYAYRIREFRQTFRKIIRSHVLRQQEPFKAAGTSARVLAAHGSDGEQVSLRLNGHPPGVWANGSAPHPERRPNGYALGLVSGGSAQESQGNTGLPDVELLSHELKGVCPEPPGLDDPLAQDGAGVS
- ASSAY_TEXT: Antagonist activity at human adenosine A2A receptor expressed in CHO-K1 cells preincubated for 15 mins before NECA addition measured after 5.5 to 6 hrs by beta-galactosidase reporter gene assay
ENDPOINT_LABEL: pKi
Numbers only, as −log10 of the molar value.

Illustrative cases are given below, each with its answer.
# INPUT_SMILES, MEASURED_RESULT
records = [
    ("Nc1nc(-c2ccco2)nc2sc(CN3CCC(F)(F)C3)cc12", 8.06),
    ("Nc1nc(-c2nccs2)nc2sc(CN3CCOCC3)cc12", 6.60),
    ("Nc1nc(-c2cccc([N+](=O)[O-])c2)nc2sc(CN3CCC(F)CC3)cc12", 5.42),
    ("Nc1nc(-c2ccco2)nc2sc(CN3CCC(F)(F)CC3)cc12", 7.30),
]

Batch: pKi for all items listed.
1. C[C@@H]1CCC[C@H](C)N1Cc1cc2c(N)nc(-c3ccc(C4CC4)o3)nc2s1
2. N#Cc1cccc(-c2nc(N)c3cc(CN4CCC(F)CC4)sc3n2)c1
3. CN(C)Cc1cc2c(N)nc(-c3ccco3)nc2s1
4. Nc1nc(-c2ccc(Cl)o2)nc2sc(CN3CCOCC3)cc12
5. C[C@@H]1CCC[C@H](C)N1Cc1cc2c(N)nc(-c3ccco3)nc2s1

[6.96, 7.26, 6.85, 7.34, 8.28]

Batch: pKi for all items listed.
1. N#Cc1cccc(-c2nc(N)c3cc(CN4CCCC(F)(F)C4)sc3n2)c1
2. Nc1nc(-c2ccc(C(F)F)o2)nc2sc(CN3CCCC(F)(F)C3)cc12
3. Nc1nc(-c2ccco2)nc2sc(CN3CCSCC3)cc12
4. Nc1nc(-c2ccco2)nc2sc(CN3CCOCC3)cc12
5. Nc1nc(-c2ccc(Cl)o2)nc2sc(CN3CCC(F)CC3)cc12
6. CN(C)C(=O)c1cccc(-c2nc(N)c3cc(CN4CCC(F)CC4)sc3n2)c1
7. Nc1nc(-c2cccs2)nc2sc(CN3CCCC3)cc12

1. 7.41
2. 7.36
3. 8.04
4. 7.54
5. 7.44
6. 5.65
7. 6.96
